Source listed as BindingDB's records for doi:10.1021/acs.jmedchem.8b00082.

Listing of entries alongside the reported log10 of EC50.
# Test Name: Inhibition of HCV genotype 1b Con1 NS5A expressed in HuH7 cell infected HCV genotype 2b assessed as decrease in viral replication after 3 days by luciferase reporter gene assay
Units before log transform: pM; reported quantity: EC50; transform: log10.

Known log10 of EC50 results, listed for orientation:
Line Notation	log10 of EC50
COC(=O)N[C@H](C(=O)N1CCC[C@H]1c1nc2ccc([C@H]3CC[C@H](c4ccc5nc([C@@H]6CCCN6C(=O)[C@@H](NC(=O)OC)C(C)C)[nH]c5c4)N3c3cc(Cl)c(N4CCCCC4)c(Cl)c3)cc2[nH]1)C(C)C	0.70
COC(=O)N[C@H](C(=O)N1CCC[C@H]1c1nc2ccc([C@H]3CC[C@H](c4ccc5nc([C@@H]6CCCN6C(=O)[C@@H](NC(=O)OC)C(C)C)[nH]c5c4)N3c3cc(F)c(N4CCC(c5ccccc5)CC4)c(F)c3)cc2[nH]1)C(C)C	0.78

I am curious: what log10 of EC50 value has been reported for COC(=O)N[C@H](C(=O)N1CCC[C@H]1c1nc2ccc([C@H]3CC[C@H](c4ccc5nc([C@@H]6CCCN6C(=O)[C@@H](NC(=O)OC)C(C)C)[nH]c5c4)N3c3ccc(OC(F)(F)F)cc3)cc2[nH]1)C(C)C ?
1.08

Do the same for COC(=O)N[C@H](C(=O)N1CCC[C@H]1c1nc2ccc([C@H]3CC[C@H](c4ccc5nc([C@@H]6CCCN6C(=O)[C@@H](NC(=O)OC)C(C)C)[nH]c5c4)N3c3ccc(F)cc3)cc2[nH]1)C(C)C please
1.32

Do the same for COC(=O)N[C@H](C(=O)N1CCC[C@H]1c1nc2ccc([C@H]3CC[C@H](c4ccc5nc([C@@H]6CCCN6C(=O)[C@@H](NC(=O)OC)C(C)C)[nH]c5c4)N3c3cc(F)c(N4CCC(c5ccc(F)cc5)CC4)c(F)c3)cc2[nH]1)C(C)C please
1.11

Do the same for COC(=O)N[C@H](C(=O)N1CCC[C@H]1c1nc2cc(F)c([C@H]3CC[C@H](c4cc5[nH]c([C@@H]6CCCN6C(=O)[C@@H](NC(=O)OC)[C@@H](C)OC)nc5cc4F)N3c3cc(F)c(N4CCC(c5ccccc5)CC4)c(F)c3)cc2[nH]1)[C@@H](C)OC please
0.48

Do the same for COC(=O)N[C@H](C(=O)N1CCC[C@H]1c1nc2ccc([C@H]3CC[C@H](c4ccc5nc([C@@H]6CCCN6C(=O)[C@@H](NC(=O)OC)C(C)C)[nH]c5c4)N3c3ccc(N4CCCCC4)c(F)c3)cc2[nH]1)C(C)C please
1.48

Do the same for COC(=O)N[C@H](C(=O)N1CCC[C@H]1c1nc2cc(F)c([C@H]3CC[C@H](c4cc5[nH]c([C@@H]6CCCN6C(=O)[C@@H](NC(=O)OC)C(C)C)nc5cc4F)N3c3cc(F)c(N4CCC(c5ccc(F)cc5)CC4)c(F)c3)cc2[nH]1)C(C)C please
0.30

Do the same for COC(=O)N[C@H](C(=O)N1CCC[C@H]1c1nc2cc(F)c([C@H]3CC[C@H](c4cc5[nH]c([C@@H]6CCCN6C(=O)[C@@H](NC(=O)OC)C6CCOCC6)nc5cc4F)N3c3cc(F)c(N4CCC(c5ccccc5)CC4)c(F)c3)cc2[nH]1)C1CCOCC1 please
0.90
